The measured values listed here are drawn from ChEMBL document CHEMBL1153898.

Target: Serine/threonine-protein kinase pim-1 (Homo sapiens, UniProt P11309)
Assay: Inhibition of human recombinant Pim1 expressed in insect cells by HTRF
Sequence (P11309 whole entry): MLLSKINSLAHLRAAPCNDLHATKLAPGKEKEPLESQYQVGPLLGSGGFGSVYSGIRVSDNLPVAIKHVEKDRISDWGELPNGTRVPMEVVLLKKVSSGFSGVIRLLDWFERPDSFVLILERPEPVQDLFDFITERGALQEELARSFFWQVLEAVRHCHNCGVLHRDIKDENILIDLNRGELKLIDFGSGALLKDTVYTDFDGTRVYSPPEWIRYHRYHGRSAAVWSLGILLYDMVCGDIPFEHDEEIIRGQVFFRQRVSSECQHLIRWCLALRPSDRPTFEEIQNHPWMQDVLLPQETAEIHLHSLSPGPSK
Measured Quantity: Ki
Please answer in the form of a number followed by its unit of measurement.

The examples below pair each entry with its known result.
- Molecule: "CCOc1ccc(C2C(C(C)=O)=C(O)C(=O)N2CCc2c[nH]c3ccccc23)cc1 (centres undefined)"
  Measured Quantity: "Ki"
  Observed Measurement: "4.2 µM"
- Molecule: "CC(=O)C1=C(O)C(=O)N(CCc2c[nH]c3ccccc23)C1c1ccc(O)cc1 (centres undefined)"
  Measured Quantity: "Ki"
  Observed Measurement: "2.2 µM"

I'm hoping you can list Ki for every molecule here, please.
1. CCc1ccc(C2C(C(C)=O)=C(O)C(=O)N2CCc2c[nH]c3ccccc23)cc1 (centres undefined)
2. COc1cc(C2C(C(C)=O)=C(O)C(=O)N2CCc2c[nH]c3ccccc23)ccc1O (centres undefined)

Found:
2.1 µM
4.5 µM

---

Molecular target: Serine/threonine-protein kinase pim-1 (Homo sapiens)
Assay: Inhibition of human recombinant Pim1 expressed in insect cells at 100 uM
Sequence (P11309 whole entry, looked up): as the sequence (P11309 whole entry) above
The threshold is inclusive: inhibition of exactly 80% counts as rule met; values below receive rule not met.

Worked set:
- Compound: "O/N=C/c1ccccc1OCC(O)Cn1c2ccccc2c2ccccc21 (configuration not stated)"
  Category: "rule not met"
- Compound: "CC(=O)Nc1ccc(-c2csc(-c3c[nH]c4ccccc34)n2)cc1"
  Category: "rule not met"
- Compound: "CC(Cc1ccccc1)NC(=O)C(c1ccc(N)cc1)c1ccc(N)cc1 (configuration not stated)"
  Category: "rule not met"
- Compound: "COc1cc(C2C(C(C)=O)=C(O)C(=O)N2CCc2c[nH]c3ccccc23)ccc1O (configuration not stated)"
  Category: "rule met"
- Compound: "CN1C2C=C(N(CCc3c[nH]c4ccccc34)C(=O)c3ccc(Cl)cc3)CCC1CC2 (configuration not stated)"
  Category: "rule not met"

Pending compound:
Lookup: Does inhibition meet or surpass 80% for COC(=O)c1ccc(C2C(C(C)=O)=C(O)C(=O)N2CCc2c[nH]c3ccccc23)cc1 (configuration not stated) ?
Found: rule not met

---

System: PC-3
Assay: Antiproliferative activity against human PC3 cells assessed as reduction in cell number after 72 hrs
Format: functional, cell-based
Conditions: PC-3, 72 h
Measured Quantity: pIC50
Answers are plain numbers, as −log10 of the molar value.

Lookup: What value of measured pIC50 is listed for CCc1ccc(C2C(C(C)=O)=C(O)C(=O)N2CCc2c[nH]c3ccccc23)cc1 (stereo unspecified) ?
Found: 5.00

---

Biological target: Serine/threonine-protein kinase pim-1 (Homo sapiens)
Experiment: Inhibition of recombinant Pim1 by scintillation counter
Can you tell me ID50 for the items I'm about to list?
Give bare numbers, in µM.

The examples below pair each entry with its known result.
- Compound: "CCOc1ccc(C2C(C(C)=O)=C(O)C(=O)N2CCc2c[nH]c3ccccc23)cc1 (configuration not stated)"
  ID50 [µM]: 12
- Compound: "COC(=O)c1ccc(C2C(C(C)=O)=C(O)C(=O)N2CCc2c[nH]c3ccccc23)cc1 (configuration not stated)"
  ID50 [µM]: 13
- Compound: "COc1cc(C2C(C(C)=O)=C(O)C(=O)N2CCc2c[nH]c3ccccc23)ccc1O (configuration not stated)"
  ID50 [µM]: 9.5
- Compound: "CC(=O)C1=C(O)C(=O)N(CCc2c[nH]c3ccccc23)C1c1ccc(O)cc1 (configuration not stated)"
  ID50 [µM]: 5.2
- Compound: "CCc1ccc(C2C(C(C)=O)=C(O)C(=O)N2CCc2c[nH]c3ccccc23)cc1 (configuration not stated)"
  ID50 [µM]: 4.5

I'm hoping you can list ID50 for every compound here, please.
1. CC(=O)C1=C(O)C(=O)N(CCc2c[nH]c3ccccc23)C1c1ccc(C)cc1 (configuration not stated)
2. CC(=O)C1=C(O)C(=O)N(CCc2c[nH]c3ccccc23)C1c1cccc(O)c1 (configuration not stated)

Found:
[10, 19]
